Measured values drawn from patent US20140179896A1 for this set.

target: T1, human vascular endothelial growth factor receptor-2 Fc chimera (KDR-Fc) (human, UniProt P35968 20-764); assay: binding to 1 nM KDR-Fc, % of input; radioactive equilibrium binding (assay not given)
T1 construct: range 1-764; also called human VEGFR-2; hKDR; not shown: human IgG1 Fc
T1 sequence (P35968 20-764 limits assumed, change not shown, form in doubt): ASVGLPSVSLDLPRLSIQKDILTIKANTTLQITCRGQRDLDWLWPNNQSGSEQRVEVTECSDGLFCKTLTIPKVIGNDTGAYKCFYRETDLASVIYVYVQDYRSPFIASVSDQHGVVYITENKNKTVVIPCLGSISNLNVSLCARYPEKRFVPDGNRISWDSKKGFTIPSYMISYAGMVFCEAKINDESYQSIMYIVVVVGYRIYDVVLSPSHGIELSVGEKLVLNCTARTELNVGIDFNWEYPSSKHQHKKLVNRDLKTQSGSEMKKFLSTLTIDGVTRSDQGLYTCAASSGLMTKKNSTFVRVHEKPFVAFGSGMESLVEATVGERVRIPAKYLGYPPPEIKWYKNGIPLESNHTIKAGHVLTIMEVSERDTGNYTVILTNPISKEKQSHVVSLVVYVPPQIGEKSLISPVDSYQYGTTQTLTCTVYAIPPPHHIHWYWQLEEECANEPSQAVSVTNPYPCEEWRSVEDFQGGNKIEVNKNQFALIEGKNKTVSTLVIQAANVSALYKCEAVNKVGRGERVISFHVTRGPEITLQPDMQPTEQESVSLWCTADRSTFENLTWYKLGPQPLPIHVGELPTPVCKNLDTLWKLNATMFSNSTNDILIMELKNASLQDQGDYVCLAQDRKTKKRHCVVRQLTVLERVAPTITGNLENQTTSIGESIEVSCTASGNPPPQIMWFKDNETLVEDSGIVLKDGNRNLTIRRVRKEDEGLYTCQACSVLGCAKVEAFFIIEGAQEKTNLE

[
  {
    "BINDER": "E27 (designed binder, Del 1-8 10Fn3 clone; Flag tag of the radioactive-assay form not included) EVVAATPTSLLISWRHPHFPTRYYRITYGETGGNSPVQEFTVPLQPPTATISGLKPGVDYTITGYAVTVERNGHTLMTPISINYRT",
    "Binding to 1 nM KDR, % [%]": 37
  },
  {
    "BINDER": "K1 (designed binder, Del 1-8 10Fn3 clone; tag not included) EVVAATPTSLLISWRHPHFPTRYYRITYGETGGNSPVQEFTVPLQPPTATISGLKPGVDYTITGYAVTMGLYGHELLTPISINYRT",
    "Binding to 1 nM KDR, % [%]": 48
  },
  {
    "BINDER": "VR28 (designed binder, 10Fn3 clone with WT N-terminus; tag not included; also called VR28 (I69T); VR28 clone) VSDVPRDLEVVAATPTSLLISWRHPHFPTRYYRITYGETGGNSPVQEFTVPLQPPTATISGLKPGVDYTITGYAVTVAQNDHELITPISINYRT",
    "Binding to 1 nM KDR, % [%]": 3
  },
  {
    "BINDER": "K14 (designed binder, Del 1-8 10Fn3 clone; Flag tag of the assay form not included) EVVAATPTSLLISWRHPHFPTRYYRITYGETGGNSPVQEFTVPLQPPTATISGLKPGVDYTITGYAVTREENDHELLIPISINYRT",
    "Binding to 1 nM KDR, % [%]": 20
  },
  {
    "BINDER": "E16 (designed binder, Del 1-8 10Fn3 clone; Flag tag of the radioactive-assay form not included) EVVAATPTSLLISWRHPHFPTRYYRITYGETGGNSPVQEFTVPLQPPTATISGLKPGVDYTITGYAVTVEENGRQLMTPISINYRT",
    "Binding to 1 nM KDR, % [%]": 35
  }
]
